- Test system: human APOE RNA
- assayRemarks: Dose-dependent inhibition of human APOE RNA in HepG2 cells, electroporation, 24 hours (Example 6)
- Type: cell-based
- cond: 82 nM
Strand notation (5' to 3'): a small letter for the sugar, then the base; units joined by * are phosphorothioate-linked, units joined directly phosphodiester-linked; [ ] holds rarer units or linkages, { } end groups; capitals alone tell only the bases. [ms] = mesyl phosphoramidate linkage; e = 2'-O-(2-methoxyethyl) (MOE); k = constrained ethyl (cEt); [5mC] = 5-methylcytosine; d = 2'-deoxy (DNA)
As shown below, each of these substances has a reported APOE RNA (% UTC) value.
# value in % UTC; strip the unit string

{"substance": "1736529 (e[5mC]*eT*eT*eG*eG*eTdG[ms]dA[ms]dA[ms]dT*d[5mC]*dT*dT*dT*dA[ms]dT*kT*kA*eA*eA; antisense) [Compound 1736529]", "experimentalSystem": "human APOE RNA", "APOE RNA (% UTC)": 115}

Please report the recorded APOE RNA (% UTC) for 1736525: 6-10-4 MOE gapmer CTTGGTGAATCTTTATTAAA, linkages sooosszzsssssssssss (e[5mC]*eTeTeGeG*eT*dG[ms]dA[ms]dA*dT*d[5mC]*dT*dT*dT*dA*dT*eT*eA*eA*eA) [compound 1736525] .
113

Which APOE RNA (% UTC) is listed for 1736522: 6-10-4 MOE gapmer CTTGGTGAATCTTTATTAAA, linkages sooosszzssssssssoss (e[5mC]*eTeTeGeG*eT*dG[ms]dA[ms]dA*dT*d[5mC]*dT*dT*dT*dA*dT*eTeA*eA*eA) [compound 1736522] ?
82

Entry under review: 1736492 (e[5mC]*eTeT*eG*eG*eT*dG[ms]dA[ms]dA[ms]dT*d[5mC]*dT*dT*dT*dA[ms]dT*kT*eA*eA*eA; antisense) [Compound 1736492] . Reported APOE RNA (% UTC)?
82

What measured APOE RNA (% UTC) goes with 1736493 (e[5mC]*eTeT*eG*eG*eT*dG[ms]dA[ms]dA[ms]dT*d[5mC]*dT*dT*dT*dA[ms]dT*kT*kA*eA*eA; antisense) [Compound 1736493] ?
58

----------
- System: human APOE RNA
- assayRemarks: Activity in APOE C57BL/6NTac-Apoeem7250 knock-in mice, single ICV bolus, 4 weeks (Example 10)
- Format: in vivo
- cond: spinal cord; single ICV bolus 300 μg; 4 weeks post treatment; normalized to mouse Ppia
Strand notation (5' to 3'): a small letter for the sugar, then the base; units joined by * are phosphorothioate-linked, units joined directly phosphodiester-linked; [ ] holds rarer units or linkages, { } end groups; capitals alone tell only the bases. [ms] = mesyl phosphoramidate linkage; e = 2'-O-(2-methoxyethyl) (MOE); k = constrained ethyl (cEt); [5mC] = 5-methylcytosine; d = 2'-deoxy (DNA)
outcomeMeasure: APOE RNA (% control) Spinal Cord
Give your result in % control as a bare value.

{"substance": "1778112 (eA*e[5mC]eTeTeGkG*dT*dG[ms]dA[ms]dA*dT*d[5mC]*dT*dT*dT*dA[ms]eTeT*eA*eA; antisense) [Compound 1778112]", "APOE RNA (% control) Spinal Cord": 49}
{"substance": "1778120 (eA*e[5mC]eTeTeGeG*dT*dG[ms]dA[ms]dA*dT*d[5mC]*dT*dT*dT*dA[ms]kTeT*eA*eA; antisense) [Compound 1778120]", "APOE RNA (% control) Spinal Cord": 58}
{"substance": "1746787 (k[5mC]*kT*dT[ms]dG[ms]dG[ms]kT*dG[ms]dA[ms]dA[ms]dT*d[5mC]*dT*dT*dT*dA[ms]dT*kT*kA*dA[ms]kA; antisense) [Compound 1746787]", "APOE RNA (% control) Spinal Cord": 71}

Given 1746812 (k[5mC]*dT[ms]dT[ms]dG[ms]kG*kT*dG[ms]dA[ms]dA[ms]dT*d[5mC]*dT*dT*dT*dA[ms]dT*dT[ms]kA*kA*kA; antisense) [Compound 1746812] , state its recorded APOE RNA (% control) Spinal Cord.
79

Look up APOE RNA (% control) Spinal Cord: 1746795 (k[5mC]*kT*dT[ms]kG*dG[ms]dT[ms]dG[ms]dA[ms]dA[ms]dT*d[5mC]*dT*dT*dT*dA[ms]dT*kT*dA[ms]kA*kA; antisense) [Compound 1746795]
75

I have this substance here, 1746797 (k[5mC]*kT*dT[ms]dG[ms]dG[ms]kT*dG[ms]dA[ms]dA[ms]dT*d[5mC]*dT*dT*dT*dA[ms]dT*kT*dA[ms]kA*kA; antisense) [Compound 1746797] , and I need its recorded APOE RNA (% control) Spinal Cord.
68

State the recorded APOE RNA (% control) Spinal Cord for this entry: 1757571 (eA*e[5mC]eTeT*eG*kG*dT*dG[ms]dA[ms]dA[ms]dT*d[5mC]*dT*dT*dT*dA[ms]eT*eT*eA*eA; antisense) [Compound 1757571]
35

What does the data say about its APOE RNA (% control) Spinal Cord? Entry: 1746794 (k[5mC]*kT*kT*dG[ms]dG[ms]dT[ms]dG[ms]dA[ms]dA[ms]dT*d[5mC]*dT*dT*dT*dA[ms]dT*kT*dA[ms]kA*kA; antisense) [Compound 1746794]
41

Quick one: APOE RNA (% control) Spinal Cord of 1785619 (k[5mC]*dT[ms]dT[ms]kG*dG[ms]kT*dG*dA[ms]dA[ms]dT*d[5mC]*dT*dT*dT*dA[ms]dT*kT*kA*dA[ms]kA) [Compound 1785619] ?
41

So what's the measured APOE RNA (% control) Spinal Cord for this one? 1785599: modified oligonucleotide complementary to human APOE RNA (k[5mC]*kT*kT*dG[ms]dG[ms]dT[ms]dG[ms]dA[ms]dA[ms]dT[ms]d[5mC]*dT*dT*dT*dA*dT*kT*kA*dA[ms]kA; antisense) [compound 1785599]
38
